Experiment: growth suppression of beta-catenin knockout HCT116, pilot screen, human colon tumor cells (AID 823);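 further: 0% = wells killed by 20 µM Hyamine and 100% = untreated DMSO cell wells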
Details: CellTiter-Glo, 60 h, at 10 µM, active compounds read low
Records with an inconclusive call do not appear.
QUANTITY KIND: viability (%)
Just the number please, in %, no unit attached.

Name the recorded viability for CC1CCC(NC(=O)Cn2c(=O)[nH]c3ccsc3c2=O)CC1 (stereo unspecified) . 99.5

Name the recorded viability for `Cc1nc2ccccc2c2oc(C(=O)N3CCN(C4CCCCC4)CC3)cc12` . 44.1

Name the recorded viability for `O=C(CSc1nc(-c2ccccc2)c(-c2ccccc2)o1)N1CCOCC1` . 90.2

---

Experiment: viability gain of MRP-1-high H69AR cells under doxorubicin, pilot screen, MRP-1 activator project, CellTiter-Glo, duplicate (AID 807);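 further: compound pretreatment 18-22 h then 72 h combined with doxorubicin; 0% = doxorubicin alone and 100% = vehicle without doxorubicin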
Details: H69AR viability with doxorubicin, CellTiter-Glo luminescence; at 10 µM; active compounds read high
The following molecules are listed with their measured viability increase values.
Just the number please, in %, no unit attached.

MOLECULE	ENDPOINT RESULT
CC1CC(C)CN(C(=O)CSc2nnc(-c3ccc(Cl)s3)o2)C1 (stereo unspecified)	2.04
CCOCCCNC(=O)Cn1cc2c(n1)CCCC2	-0.46

Name the recorded viability increase for `CCC(=O)Nc1sc2c(c1C#N)CC(C)(C)NC2(C)C` . 0.09

Name the recorded viability increase for CCC(C)NC(=O)c1ccc(CS(=O)(=O)c2ccc(OC)cc2)o1 (stereo unspecified) . -1.33

---

Assay: viability gain of MRP-1-high H69AR cells under doxorubicin, pilot screen, MRP-1 activator project, CellTiter-Glo, duplicate (AID 807);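 further: compound pretreatment 18-22 h then 72 h combined with doxorubicin; 0% = doxorubicin alone and 100% = vehicle without doxorubicin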
Conditions: H69AR viability with doxorubicin, CellTiter-Glo luminescence; at 10 µM; active compounds read high
The following compounds are listed with their measured viability increase values.
Just the number please, in %, no unit attached.

Reference set (6 entries):
COMPOUND	viability increase (%)
CCOC(=O)N1CCC(NC(=O)c2ccc3snnc3c2)CC1	-3.44
CCC1(C(=O)O)NC(c2cccc(OC)c2O)C2C(=O)N(c3ccccc3)C(=O)C21 (configuration not stated)	-2.33
CCOC(=O)c1c(NC(=O)OC)sc(C(=O)N(CC)CC)c1C	-1.31
CCC(C(=O)N1CC2(C)CC1CC(C)(C)C2)N1C(=O)c2ccccc2C1=O (configuration not stated)	-3.05
O=C(NCCn1ccc2ccccc21)c1ccc(S(=O)(=O)N2CCOCC2)cc1	-2.92
CCSc1nc2c(c(=O)n1-c1ccc(F)cc1)SCC2	-2.75

Name the recorded viability increase for `COc1ccc(-n2c(Cn3c(=O)sc4ccccc43)nnc2SCC(=O)N2CCCC2)cc1` . 0.25

Name the recorded viability increase for CC1(C)CC(NC(=O)C23CCC(C)(C(=O)C2)C3(C)C)CC(C)(C)N1 (configuration not stated) . -0.11

Name the recorded viability increase for CCOC(=O)N1CCC(NC(=O)C(Cc2ccccc2)NC(=O)C2CCCCC2)CC1 (configuration not stated) . -2.92

Name the recorded viability increase for COc1ccc(S(=O)(=O)N2CCCCC2C(=O)O)cc1OC (configuration not stated) . -0.69

Name the recorded viability increase for `c1nc(NCCN2CCOCC2)c2sc3nc(N4CCOCC4)c4c(c3c2n1)CCC4` . -6.1

Name the recorded viability increase for `CCOc1ccc(-n2c(SCC(=O)Nc3nccs3)nc3c(c2=O)SCC3)cc1` . -0.41

Name the recorded viability increase for `CCOc1ccc(-n2c(SCC(=O)Nc3cc(C)on3)nc3c([nH]c4ccccc43)c2=O)cc1` . -6.08

Name the recorded viability increase for `Cc1cccc(N(CC(=O)Nc2c(C)n(C)n(-c3ccccc3)c2=O)S(C)(=O)=O)c1C` . -1.08

Name the recorded viability increase for `COc1cccc(NC(=O)CSc2ncnc3c2oc2ccccc23)c1` . -2.19

Name the recorded viability increase for `COC(=O)c1cccnc1-n1c(=O)c2cccnc2n(Cc2cccc(OC)c2)c1=O` . -3.24

Name the recorded viability increase for `O=C(O)c1ccc(NS(=O)(=O)c2cccc3cccnc23)cc1` . -0.56

Name the recorded viability increase for `COc1ccc(C/C(O)=C(\C#N)c2nc3ccccc3[nH]2)cc1OC` . -1.93

Name the recorded viability increase for `O=C1CCCc2sc3c(c2N1)CCCCC3` . -0.35

Name the recorded viability increase for `O=C(CCn1nnc2ccccc21)N1CCC(O)(c2cccc(F)c2)CC1` . -2.75

Name the recorded viability increase for `Cc1cc(Nc2ccc(F)c(Cl)c2)n2nc(C)nc2n1` . -3.61

Name the recorded viability increase for CNC(=O)C1C2C=CC3(O2)C1C(=O)N(CCOC)C3C(=O)NCc1ccc(OC)cc1 (configuration not stated) . -1.22

---

The following molecules are listed with their measured viability values.
Test: HUVEC growth inhibition – cell-based, human, primary screen (AID 575);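 further: 100% = median of untreated cell wells with 0.1% DMSO on each plate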
Conditions: HUVEC proliferation, CellTiter-Glo luminescence, 72 h; at 10 µM; active compounds read low
Just the number please, in %, no unit attached.

Reference set (8 entries):
MOLECULE	U	ENDPOINT RESULT
CCOC(=O)c1[nH]c2ccccc2c1NC(=O)CCN1CCN(C(=O)OCC)CC1	%	81.4
O=c1oc2ccccc2c(O)c1C=NCc1ccccn1	%	67.6
O=C(NCCCN1CCN(CCCNC(=O)c2ccc(F)cc2)CC1)c1ccc(F)cc1	%	89.9
O=C(CSc1ncccn1)c1ccccc1Br	%	116
COC(=O)c1c(NC(=O)CSc2nnc(-c3cccnc3)n2Cc2ccco2)sc(C)c1C	%	71.5
Cc1ccc(-c2nnn(CC(=O)N(CC(=O)NC3CCCCC3)c3cnc4ccccc4c3)n2)o1	%	93.3
CC(=O)Nc1ccc(OCC(O)CN2CCN(c3cccc(Cl)c3)CC2)cc1 (stereo unspecified)	%	79.5
O=C(CSc1nnc2ccccn12)NCCN1C(=O)CSC1=O	%	92.5

Name the recorded viability for CN(C)S(=O)(=O)c1ccc2c(c1)C(CC(=O)O)OC2=O (stereo unspecified) . 111

Name the recorded viability for `Cc1[nH]c2ccccc2c(=O)c1CN(C)Cc1ccccc1` . 100

Name the recorded viability for `CC(C)=CC(=O)N1CCCc2ccccc21` . 105

---

The following compounds are listed with their measured growth inhibition values.
Assay: Restrictive medium S. cerevisiae growth inhibition, OD615, pilot screen of yeast lifespan reduction project, restrictive growth control (AID 706);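 further: modified DeaD lifespan yeast strain shifted to restrictive glucose medium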
Details: OD615, 48 h, at 10 µM, active compounds read high
Activity calls are given as the source filed them.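 The calls were made as follows: active = growth inhibition above a set limit, 3 SD over mean compound inhibition, in both replicates (cut at about 43% in these data); inconclusive = above the limit in only one replicate; inactive = at or below the limit in both replicates.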

Reference set (8 entries):
COMPOUND	growth inhibition
Cc1csc(NC(=O)C2CCCN(S(=O)(=O)c3cccnc3)C2)n1 (stereo unspecified)	1.94% (inactive)
CCOC(=O)c1c(NC(=O)c2ccc(Cl)s2)sc(C)c1C	-11.2% (inactive)
COc1cc(C2CC(=O)C=C(O)C2)cc(OC)c1OC (stereo unspecified)	-6.56% (inactive)
O=C(Nc1nc2cc3c(cc2s1)OCO3)C1=COCCO1	-31.3% (inactive)
CCC(C)NC(=O)c1ccc(CS(=O)(=O)c2ccc(OC)cc2)o1 (stereo unspecified)	-1.07% (inactive)
Cc1ccnc(Sc2nc3c(c(=O)[nH]c(=O)n3C)n2CCCc2ccccc2)n1	2.31% (inactive)
COc1ccc(N2CCN(C(=O)Cn3c(=O)[nH]c4ccsc4c3=O)CC2)cc1	-12.4% (inactive)
Cc1ccc2oc(=O)c3cnn(CC(=O)N4CCc5ccccc5C4)c3c2c1	-4.8% (inactive)

Name the recorded growth inhibition for `C=C(C)Cn1c(CCNC(=O)CCC)nc2ccccc21` . -10.3% (inactive)

Name the recorded growth inhibition for `CCOC(=O)C1CCN(S(=O)(=O)c2ccc3[nH]c(=O)oc3c2)CC1` . -5.23% (inactive)

Name the recorded growth inhibition for CC1=CCC2C(=O)N(c3ccc(C)c(Br)c3)C(=O)C2C1 (stereo unspecified) . -0.835% (inactive)

---

The following compounds are listed with their measured viability values.
Assay: growth suppression of beta-catenin knockout HCT116, pilot screen, human colon tumor cells (AID 823);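 further: 0% = wells killed by 20 µM Hyamine and 100% = untreated DMSO cell wells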
Conditions: CellTiter-Glo, 60 h, at 10 µM, active compounds read low
Records with an inconclusive call do not appear.
Just the number please, in %, no unit attached.

Reference set (5 entries):
COMPOUND	viability / %
CC(=O)N1CCC(Nc2ccc(C)cc2)CC1	101
Clc1ccc(CSc2nnc(-c3cccnc3)n2Cc2ccco2)c(Cl)c1	87.3
COC(=O)CSCc1nc2ccccc2[nH]c1=O	101
COc1ccc(NC(=O)c2nc3nc(C)cc(C(F)F)n3n2)cc1OC	108
C=CCn1c(O)c(C2=c3ccccc3=NC2=O)s/c1=N/c1nccs1	42.1

Name the recorded viability for CCN(CC)C1CC(=O)N(c2cccc(C)c2)C1=O (stereo unspecified) . 105

Name the recorded viability for Cc1ccc(NC(=O)CSC2=C(C#N)C(c3ccc4c(c3)OCO4)C3=C(CCCC3=O)N2)c(C)c1 (stereo unspecified) . 73.7

Name the recorded viability for `COC(=O)c1cc(CSc2nc3ccc(C)cc3[nH]2)oc1C` . 46.6
